- Target under test: T1, Claudin 18.2 (CLDN18.2), expressed on CHOS-CLDN 18.2 / HEK293-CLDN 18.2 / HCC827-CLDN 18.2 cells (human, UniProt P56856-2 1-261)
- T1 construct: whole, on cells; The species is not repeated for the CHOS-CLDN 18.2 cells; also called claudin-18A2
- Protocol text: FACS, CHOS-CLDN18.2 cells, 20 µg/ml
Each entry gets false (0) if its FACS reading stays under 100000, and true (1) if its FACS reading is 100000 or above.

[[record]]
binder = "QP14631461 (antibody, human IgG1, kappa, V domains shown, also called QP14611463) VH: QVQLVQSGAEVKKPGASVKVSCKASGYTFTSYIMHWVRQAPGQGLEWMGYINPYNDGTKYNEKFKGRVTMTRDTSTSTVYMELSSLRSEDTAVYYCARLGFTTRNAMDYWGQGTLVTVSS VL: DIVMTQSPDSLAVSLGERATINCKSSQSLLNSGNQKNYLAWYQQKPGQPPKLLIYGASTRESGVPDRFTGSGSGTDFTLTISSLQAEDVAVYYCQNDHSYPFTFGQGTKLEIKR"
group_label = "true (1)"

[[record]]
binder = "QP207208 (antibody, human IgG1, V domains shown, Chimeric; also called 51A3; mouse-derived chimeric antibody QP207208) VH: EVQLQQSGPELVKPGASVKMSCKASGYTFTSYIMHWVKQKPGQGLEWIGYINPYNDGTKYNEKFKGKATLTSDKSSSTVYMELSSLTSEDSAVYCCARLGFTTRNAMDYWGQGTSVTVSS VL: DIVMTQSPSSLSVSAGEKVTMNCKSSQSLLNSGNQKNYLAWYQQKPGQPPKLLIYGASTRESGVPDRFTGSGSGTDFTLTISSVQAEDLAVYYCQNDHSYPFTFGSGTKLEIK"
group_label = "true (1)"

[[record]]
binder = "QP14641462 (antibody, human IgG1, kappa, V domains shown, Humanized from QP207208) VH: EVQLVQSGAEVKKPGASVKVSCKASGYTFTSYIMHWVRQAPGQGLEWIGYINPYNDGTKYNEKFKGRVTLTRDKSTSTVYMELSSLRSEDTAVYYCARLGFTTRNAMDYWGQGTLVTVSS VL: DIVMTQSPDSLAVSLGERATINCKSSQSLLNSGNQKNYLAWYQQKPGQPPKLLIYGASTRESGVPDRFTGSGSGTDFTLTISSVQAEDVAVYYCQNDHSYPFTFGQGTKLEIKR"
group_label = "true (1)"

[[record]]
binder = "QP024025 (antibody, human IgG1, V domains shown, also called IMAB362; 175D10(IMAB362)) VH: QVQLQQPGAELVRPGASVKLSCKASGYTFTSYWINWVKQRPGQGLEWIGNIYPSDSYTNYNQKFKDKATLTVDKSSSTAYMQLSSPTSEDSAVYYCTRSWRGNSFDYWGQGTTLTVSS VL: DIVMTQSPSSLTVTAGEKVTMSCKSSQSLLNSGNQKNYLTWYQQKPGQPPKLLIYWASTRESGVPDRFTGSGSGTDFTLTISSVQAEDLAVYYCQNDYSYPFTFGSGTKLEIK"
group_label = "false (0)"

[[record]]
binder = "QP14641460 (antibody, human IgG1, kappa, V domains shown, Humanized from QP207208) VH: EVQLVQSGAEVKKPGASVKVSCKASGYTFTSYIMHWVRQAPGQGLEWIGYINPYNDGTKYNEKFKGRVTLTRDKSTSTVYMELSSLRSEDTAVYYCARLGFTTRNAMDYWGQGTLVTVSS VL: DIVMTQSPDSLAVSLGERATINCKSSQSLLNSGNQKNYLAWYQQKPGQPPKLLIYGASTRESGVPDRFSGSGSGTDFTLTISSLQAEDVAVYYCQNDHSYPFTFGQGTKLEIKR"
group_label = "true (1)"

